- Assayed system: Human ALDH3A1 (Homo sapiens, UniProt P30838)
- Sequence (P30838 whole entry): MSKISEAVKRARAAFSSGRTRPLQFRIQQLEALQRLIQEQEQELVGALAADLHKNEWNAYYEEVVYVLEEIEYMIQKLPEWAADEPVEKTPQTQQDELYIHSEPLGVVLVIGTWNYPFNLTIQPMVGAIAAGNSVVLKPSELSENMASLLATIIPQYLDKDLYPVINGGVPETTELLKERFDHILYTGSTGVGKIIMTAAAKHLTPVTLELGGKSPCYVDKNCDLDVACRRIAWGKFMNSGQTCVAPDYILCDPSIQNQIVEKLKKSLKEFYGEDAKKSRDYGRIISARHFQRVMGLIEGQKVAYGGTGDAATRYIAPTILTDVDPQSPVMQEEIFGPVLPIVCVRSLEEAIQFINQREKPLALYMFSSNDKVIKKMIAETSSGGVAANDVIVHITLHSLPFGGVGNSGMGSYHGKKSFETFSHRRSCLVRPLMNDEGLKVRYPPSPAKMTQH
- Method description: ALDH3A1 biochemical assay (benzaldehyde/NADP+, diaphorase-resazurin readout, 1,536-well)
- Experimental conditions: Table S2, in-house analogs
Metric: Efficacy
One number for each entry.

Each molecule below has a recorded value; state its Efficacy.
1. Cc1c(-c2cc(C(=O)NCc3cccnc3)c3c(c2)N(C)CCO3)cnn1C [NCGC00417124-01]
2. Cc1nn(CCC#N)c(C)c1[C@@H]1C=C[C@@H](NC(=O)Nc2ccc(Cl)cc2)C1 [NCGC00399959-01]
3. Cc1nn(-c2ccc(C(C)C)cc2)c(C)c1[C@@H]1C=C[C@@H](NCc2cccc(C#N)c2)C1 [NCGC00421409-01]
4. CC(=O)Nc1cccc(-c2cc(C(=O)NCc3cnn(C)c3)c3c(c2)N(C)CCO3)c1 [NCGC00417085-01]
5. COc1ccc(-n2nc(C)c([C@@H]3C=C[C@@H](NCc4ccc(N(C)C)cc4)C3)c2C)cc1 [NCGC00394616-01]

[-61.06, -62.15, -39.09, -77.64, -105.83]

Would you mind listing Efficacy for each of the following molecules?
1. Cc1ccc2[nH]c(CO[C@H]3CN(C4CCOCC4)C[C@H]3F)nc2c1 [NCGC00392993-01]
2. CNC(=O)c1cccc(-c2cnc3[nH]cc(CC(=O)N(C)c4ccccc4)c3c2)c1 [NCGC00412252-01]
3. COc1ccc(NC(=O)N[C@@H]2C=C[C@@H](c3c(C)nn(CCC#N)c3C)C2)cc1 [NCGC00399960-01]
4. COC(=O)c1ccc2nc(CO[C@H]3CN(C(=O)C4CCOCC4)C[C@H]3F)[nH]c2c1 [NCGC00392526-01]
5. Cc1ccc2[nH]c(CO[C@H]3CN(Cc4ccc(F)c(F)c4)C[C@H]3F)nc2c1 [NCGC00392991-01]

1: -23.33; 2: -26.81; 3: -93.02; 4: -67.89; 5: -26.14

Items follow; give Efficacy for each.
1. CNC(=O)c1cccc(-c2cnc3[nH]cc(CC(=O)Nc4ccccc4C)c3c2)c1 [NCGC00412345-01]
2. Cc1cccc(CNC(=O)c2csc(N3CCN(c4ccccc4)CC3)n2)c1 [NCGC00430642-01]
3. COc1cccc(N2CCN(c3nc(C(=O)NCc4cccnc4)cs3)CC2)c1 [NCGC00430684-01]
4. Cc1nn(-c2ccc(C(C)C)cc2)c(C)c1[C@@H]1C=C[C@@H](NCc2ccc(F)cc2)C1 [NCGC00401594-01]
5. Cc1nn(Cc2ccccc2)c(C)c1[C@@H]1C=C[C@@H](NC(=O)c2ccco2)C1 [NCGC00397524-03]
6. Cc1nn(Cc2ccccc2)c(C)c1[C@@H]1C=C[C@@H](NC(=O)Nc2ccccc2)C1 [NCGC00400191-01]

1. -73.33
2. -74.85
3. -68.54
4. -91.30
5. -51.19
6. -83.17
